- Assay system: Sushi domains (SD1/2) protein of the GABAB1a (GB1a) subunit, recombinant
- Sequence (Q9Z0U4 29-158): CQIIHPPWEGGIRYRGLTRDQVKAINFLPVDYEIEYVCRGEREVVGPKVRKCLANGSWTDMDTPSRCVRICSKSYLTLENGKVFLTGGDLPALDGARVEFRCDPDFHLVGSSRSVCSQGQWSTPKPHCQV
- Protocol description: FP competition
Non-standard residues stand in square brackets, D forms with d. NMeD = CN[C@@H](CC(=O)O)C(=O)O
Measured Ki, listed per entry.
Measured quantity: Ki (nM)

Binder: Ac-ADDSDVWWGGADTD-NH2
Measured quantity: Ki
Measured number: 803
//
Binder: Ac-TETEFIAW-NH2
Measured quantity: Ki
Measured number: 1010
//
Binder: Ac-PWAIVWG-NH2
Measured quantity: Ki
Measured number: 579
//
Binder: Ac-YPWAIVWGPTVSREDG-NH2
Measured quantity: Ki
Measured number: 433
//
Binder: Ac-EDDDWIDWGPTSDDDGGGGSRRRRRRRR-NH2 [17-FL-R8 (…)]
Measured quantity: Ki
Measured number: 147
//
Binder: Ac-EDDSDVDWGGADTD-NH2
Measured quantity: Ki
Measured number: 4800
//
Binder: Ac-RRRRRRRRGGGGSEDDDWIDWGPTSDDD-NH2 [R8-FL-17 (…)]
Measured quantity: Ki
Measured number: 140
//
Binder: Ac-EDDSDVWWGGADT[NMeD]-NH2 (SMILES CC(=O)N[C@@H](CCC(=O)O)C(=O)N[C@@H](CC(=O)O)C(=O)N[C@@H](CC(=O)O)C(=O)N[C@@H](CO)C(=O)N[C@@H](CC(=O)O)C(=O)N[C@H](C(=O)N[C@@H](Cc1c[nH]c2ccccc12)C(=O)N[C@@H](Cc1c[nH]c2ccccc12)C(=O)NCC(=O)NCC(=O)N[C@@H](C)C(=O)N[C@@H](CC(=O)O)C(=O)N[C@H](C(=O)N(C)[C@@H](CC(=O)O)C(N)=O)[C@@H](C)O)C(C)C) […(N-Me-D)]
Measured quantity: Ki
Measured number: 565
//
Binder: Ac-EDDSDVWWHGADTD-NH2
Measured quantity: Ki
Measured number: 270
//
Binder: Ac-P[dW]AIVWGPTVSRED-NH2 [Pw…]
Measured quantity: Ki
Measured number: 1230
//
Binder: Ac-PWAIVWGPTVSRE-NH2
Measured quantity: Ki
Measured number: 650
//
Binder: Ac-PWAIVWGPTV[dS]RED-NH2 […sRED]
Measured quantity: Ki
Measured number: 552
